Target: 14A Fab G32R (mouse | human)
Experiment: SPR
Reported metric: pKd
Answers are plain numbers, as −log10 of the molar value.

Tell me its pKd given MUC1 glycopeptide RPAPGS(Tn)TAPPAHG as the entry. 6.89
